# testedTarget: pooled human IgG (human IgG1, 2, 3 and 4)
property: Enzyme Activity Endpoint Assay (purified): Fab'2

{"protein": "PRT-585 (protein) MANQEIRYSKATPSTITSVWTKGVTPPEQFIYNEDVLHAPYIANQGWYDITKTFNGKDDLLCGAATAGNMLHWWFDQNKEQIERYLKKHPEKQKINFNGEQMFDVKEAIDTKDSQTNSKLFEYFKDKAFPYLSTKHLGVFPDHVIDMFINGYRLSLTNHGPTPVKEQTKDPRGGIFDAVFTRGDQSKLLTSRHDFKEKTLNEISDLIKQELTEGKALGLSHTYANVRINHVINLWGADFNAEGNLEAIYVTDSDSNASIGMKKYYVGVNSAGKVAISAKEIEGDNIGAQVLGLFTLSTGQDIWEQTNLEHHHHHH", "result": "574 ng/µL"}
